# TEST_DETAILS: Cytotoxicity against human MRC5 cells assessed as cell viability at 1 uM incubated for 1 day relative to control
# Type: toxicity, cell-based
# CONDITION_DESCRIPTION: read-out: Activity
RECORDED_ENDPOINT: viability at 24 h, 1 µM

SMILES_STR	ASSAY_VALUE
COc1cc(Nc2ncc(C)c(Nc3cccc(S(=O)(=O)N4CCOCC4)c3)n2)cc(OC)c1OC	89.2%

Challenge: May I ask what viability at 24 h, 1 µM has been recorded for `Cc1cnc(Nc2ccc(N3CCN(C)CC3)cc2)nc1Nc1cccc(S(=O)(=O)NC(C)(C)C)c1` ?
Response given: 107%
